Test system: HCT-116
Experiment: Antiproliferative activity against human HCT-116 cells assessed as cell growth inhibition by MTT assay
Type: functional, cell-based
# IC50 per entry
Quick reminder: number only, in µM, skip the unit.

O=Cc1c[nH]c2c1ccc1c3ccccc3n(CCCC(=O)NCCn3ccn4c5ccccc5cc34)c12 :: 9

Request: Any idea what IC50 came out for O=Cc1c[nH]c2c1ccc1c3ccccc3n(CCCC(=O)NCCn3ccn4c5ccc(C(F)(F)F)cc5cc34)c12 on HCT-116?
Result: 9

---

Tested on: A549
Experiment: Antiproliferative activity against human A549 cells assessed as cell growth inhibition measured after 48 hrs by MTT assay
Assay type: functional, cell-based
Conditions: A549, 48 h
readout.name: pIC50
Remember, pIC50 is on a log scale: it is -log10 of the molar concentration.

Request: So what does the record say about pIC50 for Cn1c2ccccc2c2cc(C3NCCc4c3[nH]c3ccccc43)ccc21 (stereo unspecified) ?
Result: 5.30

---

Tested on: A549
Assay: Antiproliferative activity against human A549 cells assessed as cell growth inhibition measured after 72 hrs by SRB assay
Format: functional, cell-based
Conditions: A549, 72 h
compounds and their reported IC50
Supply the numeric figure in nM, leaving out any unit text.

Cc1c2ccncc2c(C(=O)NCCN(C)C)c2c3cc(CO)ccc3n(C)c12 :: 650

Let us move to another entry and its IC50.
Request: Look up IC50: Cc1c2ccncc2c(C)c2c1[nH]c1ccccc12 [ELLIPTECINE]
Result: 850

---

Test system: ASPC1
Assay: Anticancer activity against human ASPC1 cells assessed as cell growth inhibition measured after 72 hrs by Cell-Titre Glo luminescent cell viability assay
Format: functional, cell-based
Details: ASPC1, 72 h
readout.name: pIC50
Please express pIC50 as -log10 of the molar concentration.

CCCCn1c2ccccc2c2cc(/C=N/NC(=O)c3ccncc3)ccc21 :: 5.47
CCCCCCn1c2ccccc2c2cc(/C=N/NC(=O)c3ccncc3)ccc21 :: 5.47
CCCCn1c2ccc(Br)cc2c2cc(/C=N/NC(=O)c3ccncc3)ccc21 :: 5.47

Request: Find pIC50 (ASPC1) for the entry Nc1ccn([C@@H]2O[C@H](CO)[C@@H](O)C2(F)F)c(=O)n1 [GEMCITABINE]
Result: 4.45

---

System: MCF7
Experiment: Antiproliferative activity against human MCF7 cells assessed as cell growth inhibition measured after 48 hrs by SRB assay
Assay type: functional, cell-based
Details: MCF7, 48 h
readout.name: pIC50
Hey, just a heads up that pIC50 is the negative log base 10 of the concentration in molar.

Answered examples (3):
Cc1c2ccncc2c(/C=C/C(C)NC=O)c2c1[nH]c1ccccc12 (centres undefined) :: 5.90
Cc1c2ccncc2c(C(=O)NCc2ccccc2)c2c1[nH]c1ccccc12 :: 5.77
COc1ccc2c(c1)c1cc3c(-c4c([N+](=O)[O-])ncn4C)nccc3c(C)c1n2C :: 5.97

Next molecule, pIC50 to be filled in.
Request: Would you kindly share the measured pIC50 for COc1ccc(NS(=O)(=O)c2ccc3c(c2)c2cc(OCCCN4CCN(C)CC4)ccc2n3C)c(OC)n1 ?
Result: 5.25

---

Test system: KYSE-510
Assay: Antiproliferative activity against human KYSE-510 cells assessed as cell growth inhibition measured after 48 hrs by CCK-8 assay
Type: functional, cell-based
Conditions: KYSE-510, 48 h
readout.name: IC50 (nM)
Give a bare numeral; the unit nM is implied.

Request: Please state recorded IC50 (tested on KYSE-510) of COc1ccc(NS(=O)(=O)c2ccc3c(c2)c2cc(O)ccc2n3C)c(OC)n1
Result: 10
